Substrate: CC(C)=CCC/C(C)=C/CC/C(C)=C/CO[P@@](=O)(O)OP(=O)(O)O
Assay: steady-state kinetics of purified enzyme (details in supplement)
Format: biochemical, Streptomyces coelicolor
Conditions: Mg2+-dependent enzyme; assay conditions in supplement
parameter: Km (µM)
Return type: number; implicit unit µM.

Example cases with answers are listed next.
• Gd11olS (germacradien-11-ol synthase; N-terminal domain of geosmin synthase) (Streptomyces coelicolor A3(2); R228V) (protein, N-terminal domain, residues 1-366 of geosmin synthase; codon-optimized synthetic gene in pET28a, expressed in E. coli, purified to homogeneity; tag details in supplement) MTQQPFQLPHFYLPHPARLNPHLDEARAHSTTWAREMGMLEGSGVWEQSDLEAHDYGLLCAYTHPDCDGPALSLITDWYVWVFFFDDHFLEKYKRSQDRLAGKAHLDRLPLFMPLDDAAGMPEPRNPVEAGLADLWTRTVPAMSADWRRRFAVATEHLLNESMWELSNINEGRVANPVEYIEMRRKVGGAPWSAGLVEYATAEVPAAVAGTRPLRVLMETFSDAVHLVNDLFSYQREVEDEGELSNGVLVLETFFGCTTQEAADLVNDVLTSRLHQFEHTAFTEVPAVALEKGLTPLEVAAVGAYTKGLQDWQSGGHEWHMRSSRYMNKGERPLAGWQALTGPGTSAADVGALLADAVAQRARSYT = 0.8
• Gd11olS (germacradien-11-ol synthase; N-terminal domain of geosmin synthase) (Streptomyces coelicolor A3(2); Q313N) (protein, N-terminal domain, residues 1-366 of geosmin synthase; codon-optimized synthetic gene in pET28a, expressed in E. coli, purified to homogeneity; tag details in supplement) MTQQPFQLPHFYLPHPARLNPHLDEARAHSTTWAREMGMLEGSGVWEQSDLEAHDYGLLCAYTHPDCDGPALSLITDWYVWVFFFDDHFLEKYKRSQDRLAGKAHLDRLPLFMPLDDAAGMPEPRNPVEAGLADLWTRTVPAMSADWRRRFAVATEHLLNESMWELSNINEGRVANPVEYIEMRRKVGGAPWSAGLVEYATAEVPAAVAGTRPLRVLMETFSDAVHLRNDLFSYQREVEDEGELSNGVLVLETFFGCTTQEAADLVNDVLTSRLHQFEHTAFTEVPAVALEKGLTPLEVAAVGAYTKGLQDWNSGGHEWHMRSSRYMNKGERPLAGWQALTGPGTSAADVGALLADAVAQRARSYT = 0.5
• Gd11olS (germacradien-11-ol synthase; N-terminal domain of geosmin synthase) (Streptomyces coelicolor A3(2); G188A) (protein, N-terminal domain, residues 1-366 of geosmin synthase; codon-optimized synthetic gene in pET28a, expressed in E. coli, purified to homogeneity; tag details in supplement) MTQQPFQLPHFYLPHPARLNPHLDEARAHSTTWAREMGMLEGSGVWEQSDLEAHDYGLLCAYTHPDCDGPALSLITDWYVWVFFFDDHFLEKYKRSQDRLAGKAHLDRLPLFMPLDDAAGMPEPRNPVEAGLADLWTRTVPAMSADWRRRFAVATEHLLNESMWELSNINEGRVANPVEYIEMRRKVAGAPWSAGLVEYATAEVPAAVAGTRPLRVLMETFSDAVHLRNDLFSYQREVEDEGELSNGVLVLETFFGCTTQEAADLVNDVLTSRLHQFEHTAFTEVPAVALEKGLTPLEVAAVGAYTKGLQDWQSGGHEWHMRSSRYMNKGERPLAGWQALTGPGTSAADVGALLADAVAQRARSYT = 3.8

Now consider the entry below.
Inquiry: State, in one line, measured Km of Gd11olS (germacradien-11-ol synthase; N-terminal domain of geosmin synthase) (Streptomyces coelicolor A3(2)) (protein, N-terminal domain, residues 1-366 of geosmin synthase; codon-optimized synthetic gene in pET28a, expressed in E. coli, purified to homogeneity; tag details in supplement) MTQQPFQLPHFYLPHPARLNPHLDEARAHSTTWAREMGMLEGSGVWEQSDLEAHDYGLLCAYTHPDCDGPALSLITDWYVWVFFFDDHFLEKYKRSQDRLAGKAHLDRLPLFMPLDDAAGMPEPRNPVEAGLADLWTRTVPAMSADWRRRFAVATEHLLNESMWELSNINEGRVANPVEYIEMRRKVGGAPWSAGLVEYATAEVPAAVAGTRPLRVLMETFSDAVHLRNDLFSYQREVEDEGELSNGVLVLETFFGCTTQEAADLVNDVLTSRLHQFEHTAFTEVPAVALEKGLTPLEVAAVGAYTKGLQDWQSGGHEWHMRSSRYMNKGERPLAGWQALTGPGTSAADVGALLADAVAQRARSYT
Reply text: 0.5
